These measurements were taken from paper PMC6043480.

Biological target: T1, 53BP1 tandem Tudor domain (residues 1459-1634) (human, UniProt Q12888 1459-1634)
T1 chain: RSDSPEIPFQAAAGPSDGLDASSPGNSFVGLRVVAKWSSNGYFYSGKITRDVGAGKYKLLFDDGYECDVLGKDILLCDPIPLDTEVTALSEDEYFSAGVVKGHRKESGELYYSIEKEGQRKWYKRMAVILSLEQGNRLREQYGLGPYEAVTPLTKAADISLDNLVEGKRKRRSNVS
Assay: ITC
Ends that are not written are not given here. dimethyl = dimethyl-lysine
property: Kd (µM)
Note: unit µM is implicit; provide only the numeric part.

Notebook: KGGAKRHRK(dimethyl)VLRDN [H4K20me2 peptide (residues 12-25)] , Kd read as 19.8
